The entries below come with measured TL1A Binding Level (Late) values attached.
Molecular target: T1, human TL1A extracellular domain with N-terminal HIS and FLAG tag (human, UniProt O95150 72-251)
T1 construct: whole entry named. ~70 kDa fraction purified by gel filtration
T1 sequence: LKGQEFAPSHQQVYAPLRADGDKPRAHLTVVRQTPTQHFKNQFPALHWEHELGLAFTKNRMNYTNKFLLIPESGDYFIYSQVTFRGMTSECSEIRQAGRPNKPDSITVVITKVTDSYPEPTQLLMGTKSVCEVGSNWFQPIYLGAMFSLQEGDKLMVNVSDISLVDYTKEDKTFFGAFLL
Assay: SPR run 2; purified antibody on Protein A; TL1A 10 ug/mL; timepoint 590
Measure: TL1A Binding Level (Late)

- Binder: "320-197 (antibody, human IgG1, name in Kabat numbering, V domains shown, human IgG1, lambda) VH: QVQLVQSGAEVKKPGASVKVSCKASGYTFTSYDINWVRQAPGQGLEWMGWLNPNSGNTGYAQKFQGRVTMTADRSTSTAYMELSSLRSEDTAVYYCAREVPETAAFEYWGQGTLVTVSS VL: QSVLTQPPSVSGAPGQRVTISCKSSSSDIGAGLGVHWYQQLPGTAPKLLIEGYYNRPSGVPDRFSGSKSGTSASLTITGLLPEDEGDYYCQSYDGTLSALFGGGTKLTVLG"
  Reading: "94 RU"
- Binder: "320-193 (antibody, human IgG1, name in Kabat numbering, V domains shown, human IgG1, lambda) VH: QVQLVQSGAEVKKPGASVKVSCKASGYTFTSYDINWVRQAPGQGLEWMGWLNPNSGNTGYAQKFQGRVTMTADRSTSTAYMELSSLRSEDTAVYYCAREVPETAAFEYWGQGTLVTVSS VL: QSVLTQPPSVSGAPGQRVTISCSSSSSDIGAGLGVHWYQQLPGTAPKLLIEGYYNRPSGVPDRFSGSKSGTSASLTITGLLPEDEGDYYCQSYDGTLSALFGGGTKLTVLG"
  Reading: "91 RU"
- Binder: "320-237 (antibody, human IgG1, name in Kabat numbering, V domains shown, human IgG1, lambda) VH: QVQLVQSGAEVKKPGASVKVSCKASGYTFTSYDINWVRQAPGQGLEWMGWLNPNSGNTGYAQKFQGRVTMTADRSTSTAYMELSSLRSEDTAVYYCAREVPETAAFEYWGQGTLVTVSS VL: QSVLTQPPSVSGAPGQRVTISCTSSSSKIGAGLGVHWYQQLPGTAPKLLIEGYYNRPSGVPDRFSGSKSGTSASLTITGLLPEDEGDYYCQSYDGTLSALFGGGTKLTVLG"
  Reading: "8 RU"
- Binder: "320-199 (antibody, human IgG1, name in Kabat numbering, V domains shown, human IgG1, lambda) VH: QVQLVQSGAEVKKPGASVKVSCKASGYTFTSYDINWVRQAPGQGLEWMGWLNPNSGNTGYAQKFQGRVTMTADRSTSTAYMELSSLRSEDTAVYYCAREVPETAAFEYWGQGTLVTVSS VL: QSVLTQPPSVSGAPGQRVTISCWSSSSDIGAGLGVHWYQQLPGTAPKLLIEGYYNRPSGVPDRFSGSKSGTSASLTITGLLPEDEGDYYCQSYDGTLSALFGGGTKLTVLG"
  Reading: "85 RU"
- Binder: "320-201 (antibody, human IgG1, name in Kabat numbering, V domains shown, human IgG1, lambda) VH: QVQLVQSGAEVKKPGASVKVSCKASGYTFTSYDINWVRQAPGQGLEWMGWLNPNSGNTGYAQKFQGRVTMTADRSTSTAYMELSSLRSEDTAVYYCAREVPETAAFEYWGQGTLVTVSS VL: QSVLTQPPSVSGAPGQRVTISCTASSSDIGAGLGVHWYQQLPGTAPKLLIEGYYNRPSGVPDRFSGSKSGTSASLTITGLLPEDEGDYYCQSYDGTLSALFGGGTKLTVLG"
  Reading: "57 RU"
- Binder: "320-233 (antibody, human IgG1, name in Kabat numbering, V domains shown, human IgG1, lambda) VH: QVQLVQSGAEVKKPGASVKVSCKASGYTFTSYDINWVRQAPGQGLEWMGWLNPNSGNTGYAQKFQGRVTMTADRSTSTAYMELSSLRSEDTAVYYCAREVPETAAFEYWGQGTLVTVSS VL: QSVLTQPPSVSGAPGQRVTISCTSSSSAIGAGLGVHWYQQLPGTAPKLLIEGYYNRPSGVPDRFSGSKSGTSASLTITGLLPEDEGDYYCQSYDGTLSALFGGGTKLTVLG"
  Reading: "16 RU"
- Binder: "320-218 (antibody, human IgG1, name in Kabat numbering, V domains shown, human IgG1, lambda) VH: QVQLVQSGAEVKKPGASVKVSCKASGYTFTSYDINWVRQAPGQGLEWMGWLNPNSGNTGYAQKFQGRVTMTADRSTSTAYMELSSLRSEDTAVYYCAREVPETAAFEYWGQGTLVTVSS VL: QSVLTQPPSVSGAPGQRVTISCTSSQSDIGAGLGVHWYQQLPGTAPKLLIEGYYNRPSGVPDRFSGSKSGTSASLTITGLLPEDEGDYYCQSYDGTLSALFGGGTKLTVLG"
  Reading: "80 RU"
- Binder: "320-194 (antibody, human IgG1, name in Kabat numbering, V domains shown, human IgG1, lambda) VH: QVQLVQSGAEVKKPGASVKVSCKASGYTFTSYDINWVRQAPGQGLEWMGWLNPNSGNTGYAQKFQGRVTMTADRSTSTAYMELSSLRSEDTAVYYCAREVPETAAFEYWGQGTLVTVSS VL: QSVLTQPPSVSGAPGQRVTISCQSSSSDIGAGLGVHWYQQLPGTAPKLLIEGYYNRPSGVPDRFSGSKSGTSASLTITGLLPEDEGDYYCQSYDGTLSALFGGGTKLTVLG"
  Reading: "64 RU"
- Binder: "320-205 (antibody, human IgG1, name in Kabat numbering, V domains shown, human IgG1, lambda) VH: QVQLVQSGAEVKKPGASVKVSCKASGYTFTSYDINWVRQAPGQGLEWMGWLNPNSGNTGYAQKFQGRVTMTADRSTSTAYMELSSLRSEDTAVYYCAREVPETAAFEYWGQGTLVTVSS VL: QSVLTQPPSVSGAPGQRVTISCTKSSSDIGAGLGVHWYQQLPGTAPKLLIEGYYNRPSGVPDRFSGSKSGTSASLTITGLLPEDEGDYYCQSYDGTLSALFGGGTKLTVLG"
  Reading: "51 RU"
- Binder: "320-236 (antibody, human IgG1, name in Kabat numbering, V domains shown, human IgG1, lambda) VH: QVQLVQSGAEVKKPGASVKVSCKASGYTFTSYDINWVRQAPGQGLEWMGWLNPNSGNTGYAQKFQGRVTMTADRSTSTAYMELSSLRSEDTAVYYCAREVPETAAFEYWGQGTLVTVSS VL: QSVLTQPPSVSGAPGQRVTISCTSSSSHIGAGLGVHWYQQLPGTAPKLLIEGYYNRPSGVPDRFSGSKSGTSASLTITGLLPEDEGDYYCQSYDGTLSALFGGGTKLTVLG"
  Reading: "6 RU"
